# Assay method text: modulators of MEP2-GFP levels in yeast, confirmation, S. cerevisiae, flow cytometry GFP, cherry picks (AID 2272);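 note: ratio of well signal to plate DMSO mean so 100% equals DMSO level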
# Condition details: S. cerevisiae MEP2-GFP strain, 3 h, at 10 µM, active compounds read high
Assignment: determine reported GFP response vs DMSO for the given compounds.
One number for each entry, in %.

{"Compound": "COc1ccccc1-c1nnc(NC(=O)c2ccc(S(=O)(=O)N3CCCC3)cc2)o1", "GFP response vs DMSO [%]": 102}

Give GFP response vs DMSO for all compounds that follow.
1. O=C(COC(=O)c1n[nH]c2ccccc12)c1cccc(Br)c1
2. Cc1ccc(N2C(=O)C3C4C=CC(CNC(=S)Nc5ccc(F)cc5)(O4)C3C2=O)cc1 (stereo not drawn)
3. Cc1ccc(S(=O)(=O)c2ccc([N+](=O)[O-])cn2)cc1
4. Cc1ccc(/C=C/C(=O)N2CC(C)CC(C)C2)o1 (stereo not drawn)

Solution:
[101, 108, 139, 116]
